Tested on: subcutaneously pentetrazol-injected model (scPTZ)
PROCEDURE DETAILS: Subcutaneously pentetrazol-injected model (scPTZ) test
Type: in vivo, mice
SETUP CONDITIONS: Mus musculus, po, 1 h, 50 mg/kg oral, Slc: ddY male mice, 3 per group, pentetrazol 85 mg/kg s.c. after 1 hour, observed 30 minutes for clonic convulsion; read-out: scPTZ (positive number/tested number) (converted)
READOUT: responders at 50 mg/kg (%)
Answers are plain numbers, in %.

Take a look at these entries with their results.
compound="NC(=O)C(O)c1ccccc1-c1cccc(F)c1 (stereo not drawn) [Example 178]" system_name="subcutaneously pentetrazol-injected model (scPTZ)" reading_unit=% recorded_value=100
compound="CNC(=O)C(F)c1ccccc1-c1ccc(F)cc1 (stereo not drawn) [Example 166]" system_name="subcutaneously pentetrazol-injected model (scPTZ)" reading_unit=% recorded_value=33.3
compound="NC(=O)Cc1ccccc1-c1ccc(Cl)cc1Cl [Example 78, 2-(2′,4′-dichlorobiphenyl-2-yl)acetamide]" system_name="subcutaneously pentetrazol-injected model (scPTZ)" reading_unit=% recorded_value=0

Can you give me responders at 50 mg/kg for all of these, one by one?
1. NC(=O)C(F)c1ccccc1-c1cccc(F)c1 (stereo not drawn) [Example 160]
2. NC(=O)Cc1ccccc1-c1cc(Cl)cc(Cl)c1Cl [Example 64]
3. COC(C(N)=O)c1ccccc1-c1ccc(F)cc1 (stereo not drawn) [Example 203]
4. NC(=O)Cc1ccccc1-c1cccc(Br)c1 [Example 52, 2-(3′-bromobiphenyl-2-yl)acetamide]
5. NC(=O)Cc1cc(F)ccc1-c1ccccc1F [Example 46, 2-(2′,4-difluorobiphenyl-2-yl)acetamide]
6. NC(=O)Cc1ccccc1-c1cc(F)c(F)c(F)c1 [Example 90]

Data returned:
1. 66.7
2. 0
3. 66.7
4. 33.3
5. 0
6. 66.7

* * *

System: maximum electroshock seizure (MES) model
PROCEDURE DETAILS: Maximum electroshock seizure (MES) model test
Format: in vivo, mice
SETUP CONDITIONS: Mus musculus, po, 1 h, 50 mg/kg oral, Slc: ddY male mice, 3 per group, electrical stimulation 1 hour after administration; inhibition of hind limb extension; read-out: MES (positive number/tested number) (converted)
READOUT: responders at 50 mg/kg
Returns: string containing the number followed by the unit.

Take a look at these entries with their results.
molecule="COC(C(N)=O)c1ccccc1-c1ccccc1 (stereo not shown) [Example 61, 2-(Biphenyl-2-yl)-2-methoxyacetamide]" recorded_value=0%
molecule=NC(=O)Cc1ccccc1-c1ccc(Cl)cc1F recorded_value=0%
molecule="NC(=O)C(F)c1ccccc1-c1ccccc1F (stereo not shown)" recorded_value=100%
molecule="CC(C(N)=O)c1ccccc1-c1ccccc1 (stereo not shown) [Example 56, 2-(Biphenyl-2-yl)propanamide]" recorded_value=0%
molecule=NC(=O)Cc1ccccc1-c1cc(F)c(F)c(F)c1 recorded_value=66.7%
molecule="NC(=O)[C@H](O)c1ccccc1-c1cc(Cl)cc(Cl)c1 (single isomer, unassigned)" recorded_value=66.7%

Can you give me responders at 50 mg/kg for all of these, one by one?
1. CNC(=O)Cc1cc(F)ccc1-c1ccccc1
2. CNC(=O)Cc1ccccc1-c1cccc(Cl)c1

Data returned:
100%
0%

Can you give me responders at 50 mg/kg for all of these, one by one?
1. NC(=O)Cc1ccc(C(F)(F)F)cc1-c1ccccc1
2. NC(=O)Cc1ccc(F)cc1-c1cccc(F)c1

Data returned:
33.3%
0%

* * *

Test system: subcutaneously pentetrazol-injected model (scPTZ)
PROCEDURE DETAILS: Subcutaneously pentetrazol-injected model (scPTZ) test
Type: in vivo, mice
SETUP CONDITIONS: Mus musculus, po, 1 h, 100 mg/kg oral, Slc: ddY male mice, 3 per group, pentetrazol 85 mg/kg s.c. after 1 hour, observed 30 minutes for clonic convulsion; read-out: scPTZ (positive number/tested number) (converted)
READOUT: responders at 100 mg/kg (%)
One number for each entry, in %.

compound="COC(C(=O)N(C)C)c1ccccc1-c1ccccc1F (centres unmarked) [Example 202]" recorded_value=100
compound="CNC(=O)C1(c2ccccc2-c2ccccc2)CC1 [Example 156]" recorded_value=33.3
compound="NC(=O)Cc1cc(Cl)ccc1-c1ccc(C(F)(F)F)cc1 [Example 142]" recorded_value=66.7
compound="NC(=O)Cc1cc(F)ccc1-c1cccc(Cl)c1 [Example 48]" recorded_value=100
compound="CNC(=O)Cc1ccc(F)cc1-c1ccccc1F [Example 42]" recorded_value=66.7
compound="NC(=O)C(O)c1ccc(F)cc1-c1cccc(F)c1 (centres unmarked) [Example 182]" recorded_value=100
compound="NC(=O)Cc1ccc(Cl)cc1-c1cccc(Cl)c1 [Example 127]" recorded_value=33.3
compound="NC(=O)Cc1ccccc1-c1ccc(F)c(Cl)c1 [Example 65]" recorded_value=33.3

Can you give me responders at 100 mg/kg for all of these, one by one?
1. NC(=O)C(O)c1ccccc1-c1ccccc1F (centres unmarked) [Example 60]
2. NC(=O)Cc1ccc(F)cc1-c1cc(Cl)cc(Cl)c1 [Example 150]
3. NC(=O)C(O)c1ccccc1-c1ccccc1Cl (single isomer, unassigned) [Example 220]

Data returned:
1: 66.7; 2: 100; 3: 100

* * *

Tested on: subcutaneously pentetrazol-injected model (scPTZ)
PROCEDURE DETAILS: Subcutaneously pentetrazol-injected model (scPTZ) test
Assay type: in vivo, mice
SETUP CONDITIONS: Mus musculus, po, 1 h, 100 mg/kg oral, Slc: ddY male mice, 3 per group, pentetrazol 85 mg/kg s.c. after 1 hour, observed 30 minutes for clonic convulsion; read-out: scPTZ (positive number/tested number) (converted)
READOUT: responders at 100 mg/kg
Returns: string containing the number followed by the unit.

Take a look at these entries with their results.
compound="Cc1cc(Cl)cc(-c2ccccc2CC(N)=O)c1F [Example 81]" readout="responders at 100 mg/kg" recorded_value=0%
compound="CNC(=O)Cc1ccccc1-c1cccc(F)c1 [Example 26]" readout="responders at 100 mg/kg" recorded_value=0%
compound="CNC(=O)Cc1ccc(Cl)cc1-c1cccc(Cl)c1 [Example 128]" readout="responders at 100 mg/kg" recorded_value=0%
compound="NC(=O)Cc1ccccc1-c1cc(Cl)cc(Cl)c1 [Example 71, 2-(3′,5′-dichlorobiphenyl-2-yl)acetamide]" readout="responders at 100 mg/kg" recorded_value=66.7%
compound="NC(=O)Cc1ccccc1-c1cc(Cl)cc(Cl)c1Cl [Example 64]" readout="responders at 100 mg/kg" recorded_value=100%

Can you give me responders at 100 mg/kg for all of these, one by one?
1. NC(=O)C(O)c1ccccc1-c1cc(Cl)cc(Cl)c1 (stereo not drawn) [Example 183]
2. NC(=O)Cc1cc(C(F)(F)F)ccc1-c1ccccc1 [Example 116]
3. NC(=O)Cc1cc(Cl)ccc1-c1ccc(F)cc1 [Example 129]
4. NC(=O)C(O)c1ccc(F)cc1-c1ccccc1 (stereo not drawn) [Example 181]
5. NC(=O)Cc1cc(Cl)ccc1-c1ccc(Cl)cc1 [Example 109, 2-(4,4′-dichlorobiphenyl-2-yl)acetamide]
6. NC(=O)Cc1ccccc1-c1ccc(F)cc1 [Example 22, 2-(4′-fluorobiphenyl-2-yl)acetamide]
7. NC(=O)C(O)c1cc(F)ccc1-c1cc(Cl)cc(Cl)c1 (stereo not drawn) [Example 189]
8. NC(=O)Cc1ccc([N+](=O)[O-])cc1-c1ccccc1 [Example 112]

Data returned:
1. 66.7%
2. 66.7%
3. 33.3%
4. 66.7%
5. 100%
6. 33.3%
7. 66.7%
8. 66.7%

Can you give me responders at 100 mg/kg for all of these, one by one?
1. NC(=O)Cc1ccccc1-c1cc(C(F)(F)F)ccc1F [Example 83]
2. NC(=O)Cc1ccccc1-c1cc(Cl)ccc1F [Example 87]
3. NC(=O)C(O)c1ccccc1-c1cc(Cl)ccc1F (stereo not drawn) [Example 194]
4. NC(=O)Cc1ccccc1-c1cc(F)ccc1Cl [Example 88]

Data returned:
["66.7%", "66.7%", "66.7%", "100%"]

Can you give me responders at 100 mg/kg for all of these, one by one?
1. NC(=O)Cc1ccccc1-c1cc(C(F)(F)F)cc(C(F)(F)F)c1 [Example 72]
2. CN(C)C(=O)Cc1ccccc1-c1ccccc1C(F)(F)F [Example 9]
3. NC(=O)[C@H](O)c1ccccc1-c1ccccc1 (single isomer, unassigned) [Example 207, 2-(Biphenyl-2-yl)-2R-hydroxyacetamide]
4. NC(=O)Cc1cc(C(F)(F)F)ccc1-c1ccc(Cl)cc1 [Example 137]
5. CC(C)(C)NC(=O)Cc1ccccc1-c1ccccc1F [Example 145]

Data returned:
1: 0%; 2: 66.7%; 3: 66.7%; 4: 66.7%; 5: 33.3%

# credit: patent US20120142771A1
